system: rabbit aortic rings; assay: Assay B: In vitro vascular smooth muscle response for AII (antagonist activity, pA2); format: cell-based; settings: Oryctolagus cuniculus, two values in a cell = two determinations
OBSERVED_PROPERTY: log10(Kb) (log10 of the value in nM)
Hi team, quick reminder: these entries are log10 of Kb (nM).

In the examples that follow, each entry is paired with its recorded log10(Kb).
COMPOUND	ASSAY_SYSTEM	READOUT_NUMBER
CCCCc1nc(CCCC)n(Cc2ccc(-c3ccccc3C(=O)NN)cc2)n1 [Compound 15]	rabbit aortic rings	0.69
CCCCc1nc2cnncc2n1Cc1ccc(-c2ccccc2-c2nnn[nH]2)cc1 [Compound 128]	rabbit aortic rings	0.37
CCCCc1nn(CCCCC(=O)OC)c(=O)n1Cc1ccc(-c2ccccc2-c2nn[nH]n2)cc1 [Compound 111]	rabbit aortic rings	0.00
CCCCc1nc(CC)n(Cc2ccc(-c3ccccc3-c3nnn[nH]3)cc2)n1 [Compound 51]	rabbit aortic rings	0.61
COC(=O)CC[C@]1(O)CC[C@H]2[C@@H]3[C@H](C(=O)OC)CC4=CC(=O)CC[C@]4(C)C34O[C@@H]4C[C@@]21C (stereo partly drawn) [Compound 2]	rabbit aortic rings	1.63
CCCCc1nn(CCC(C)CC(C)(C)C)c(=O)n1Cc1ccc(-c2ccccc2-c2nn[nH]n2)cc1 (stereo not drawn) [Compound 103]	rabbit aortic rings	1.00
CCCCc1nc(CCC)n(Cc2ccc(-c3ccccc3-c3nnn[nH]3)cc2)n1 [Compound 26]	rabbit aortic rings	-0.83
CCCCc1nc(C(F)(F)CCC)nn1Cc1ccc(-c2ccccc2-c2nnn[nH]2)nc1 [Compound 258]	rabbit aortic rings	2.16

Per the record, CCCCc1nc(CNC(=O)OC(C)(C)C)nn1Cc1ccc(-c2ccccc2-c2nnn[nH]2)cc1 [Compound 46] has log10(Kb) of 2.20

Origin of the recorded values: patent US20040102423A1
